Source of measurements: PubChem BioAssay AID651703

Give measured AC50 for each item. Keep answers brief.
- Target System: Transforming acidic coiled-coil-containing protein 3 (Homo sapiens)
- Protocol Details: inhibition of ARNT PAS-B/TACC3 complex formation – biochemical, AlphaScreen, cherry-picked samples, confirmation (AID 651703);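 note: TACC3 partner is the GST-tagged E629A mutant dimer; hits lower the signal meaning they disrupt ARNT binding to TACC3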
- Reported Conditions: AlphaScreen His-ARNT PAS-B / GST-TACC3 binding, luminescence

stdin: Give its AC50 value. Item: `O=C(c1ccccn1)N1CC[C@@H]2[C@H](CO)Nc3ccc(Br)cc3[C@@H]21`
stdout: 24.1 µM

stdin: Give its AC50 value. Item: `O=S1(=O)N=C(N/N=C/c2ccccn2)c2ccccc21`
stdout: 4.02 µM

stdin: Give its AC50 value. Item: `COc1ccc(/C=N/Nc2nncn2N)cc1Br`
stdout: 25.1 µM

stdin: Give its AC50 value. Item: `Cc1[nH][nH]c(=O)c1C(c1ccc(-c2ccc(F)cc2)o1)c1c(C)[nH][nH]c1=O`
stdout: 19.6 µM

stdin: Give its AC50 value. Item: `O=S1(=O)N=C(N(CCO)/N=C/C=C/c2ccccc2)c2ccccc21`
stdout: 53.9 µM

stdin: Give its AC50 value. Item: `COCCn1c(-c2ccccc2)cnc1N`
stdout: 31.1 µM

stdin: Give its AC50 value. Item: `c1ccc(-c2cn(C[C@H]3CC[C@H](Cn4cc(-c5ccccn5)nn4)O3)nn2)nc1`
stdout: < 0.5 µM

stdin: Give its AC50 value. Item: `Cn1c(-c2ccc(Cl)cc2)cnc1N`
stdout: 20.5 µM

stdin: Give its AC50 value. Item: `O=C(Nc1nc(NC(=O)c2ccco2)n(-c2ccccc2)n1)c1ccccc1`
stdout: 12.9 µM

stdin: Give its AC50 value. Item: `COc1ccc([Si](C)(C)[C@@H]2[C@@H](CCO)O[C@]3(C(=O)N4c5c(cc(OC)cc53)C(C)=CC4(C)C)[C@H]2C)cc1`
stdout: 11.3 µM

stdin: Give its AC50 value. Item: `CCCN(CCC)c1nc(-c2ccccn2)nc2ccccc12`
stdout: 15.5 µM

stdin: Give its AC50 value. Item: `CCN(CC)c1ccc(C(=C2C=CC(=[N+](CC)CC)C=C2)c2ccc(N(CC)CC)cc2)cc1`
stdout: 0.734 µM

stdin: Give its AC50 value. Item: CCN1CCN(C(c2cccnc2)c2cc(Cl)c3cccnc3c2O)CC1 (stereo not drawn)
stdout: 4.03 µM

stdin: Give its AC50 value. Item: `C=CCn1c(CNc2ccccc2)nnc1SCC(=O)N/N=C/c1ccc(O)cc1O`
stdout: 25.1 µM

stdin: Give its AC50 value. Item: `Cc1[nH]n(-c2ccccc2)c(=O)c1/C=N/NC(=O)c1cccc(F)c1`
stdout: 9.69 µM

stdin: Give its AC50 value. Item: `O=C(CSc1cccc2cccnc12)Nc1cc(C(=O)O)cc(C(=O)O)c1`
stdout: 17.9 µM

stdin: Give its AC50 value. Item: CC(=O)NC(c1ccco1)c1cc(F)c2cccnc2c1O (stereo not drawn)
stdout: 5.76 µM

stdin: Give its AC50 value. Item: `O=C(CNCc1ccccn1)N1CCc2ccccc2C1`
stdout: 3.23 µM

stdin: Give its AC50 value. Item: `COc1ccc(O)c(/C=N\NC(=O)CCn2nnc3ccccc32)c1`
stdout: 33.4 µM

stdin: Give its AC50 value. Item: `O=C(CSc1ccc(-c2ccccn2)nn1)Nc1ccccc1`
stdout: 1.96 µM

stdin: Give its AC50 value. Item: `c1ccc(-c2n[nH]c(-c3ccccn3)n2)nc1`
stdout: < 0.5 µM

stdin: Give its AC50 value. Item: CC(=O)NC(c1ccc2ccccc2c1)c1ccc2cccnc2c1O (stereo not drawn)
stdout: 5.44 µM

stdin: Give its AC50 value. Item: CCOC(=O)N1CCN(C(c2cccnc2)c2ccc3cccnc3c2O)CC1 (stereo not drawn)
stdout: 4.64 µM
